Test system: ANKK1
Applied conditions: concentration: 1 μM,replicates: in singlicate; n = 1;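 also: KINOMEscan kinase panel screen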
Hi, to clarify the labels: 1 covers %Inh from 30% upward, 0 covers anything below 30%.

Cc1cc(C(=O)Nc2ccc(Oc3ccc4nc(NC(=O)C5CC5)cn4n3)cc2)nn1-c1ccccc1 0
Nc1nc(Nc2ccccc2)cc(-c2ccc3c(N)n[nH]c3c2)n1 1
CCn1c(-c2nonc2N)nc2c(C#CC(C)(C)O)nc(OCCN)cc21.Cl.Cl 0
Cl.Cl.NC[C@H](Cc1ccc(C(F)(F)F)cc1)NC(=O)c1cc(Br)c(-c2ccnc3[nH]ccc23)s1 0
O=C(NCCCN1CCOC1=O)c1cnc(NCc2cc(Cl)ccc2Cl)nc1NC1CCCC1 0
Cc1cc2cn[nH]c2cc1-c1cccc2c(N)c(C(N)=O)nnc12 1
CC(C)N1C(=O)Cc2cc(Nc3ncc(C(F)(F)F)c(NCc4cccc(S(C)(=O)=O)c4)n3)ccc21 1

====

%Inh values, listed per item
Tested on: GRK2
Construct: gene ADRBK1
Applied conditions: concentration: 1 μM,replicates: in singlicate; n = 1
Readout name: %Inh (%)

Compound	Quantitative readout
CCN(CC)CCCCNc1ncc2cc(-c3c(Cl)cccc3Cl)c(NC(=O)NC(C)(C)C)nc2n1	22
CN(C)CC(O)COc1ccc(Nc2nccc(-c3cnn4nc(N5CCOCC5)ccc34)n2)cc1 (stereo not drawn)	0
Cl.Cl.NC[C@H](CC1CCCCC1)NC(=O)c1cc(Br)c(-c2ccnc3[nH]ccc23)s1	0
CCn1c(-c2nonc2N)nc2c(C#CC(C)(C)O)nc(OCCN)cc21.Cl.Cl	0
Cl.Cl.NC[C@H](Cc1ccc(C(F)(F)F)cc1)NC(=O)c1cc(Br)c(-c2ccnc3[nH]ccc23)s1	35
C[C@@H](Oc1cc(-c2cnn(C3CCNCC3)c2)cnc1N)c1c(Cl)ccc(F)c1Cl	16
CNC(=O)c1ccccc1Sc1ccc2c(/C=C/c3ccccn3)n[nH]c2c1	22
Cc1ccc(-n2nc(C(C)(C)C)cc2NC(=O)Nc2ccc(OCCN3CCOCC3)c3ccccc23)cc1	5
Cc1cc(C(=O)Nc2ccc(Oc3ccc4nc(NC(=O)C5CC5)cn4n3)cc2)nn1-c1ccccc1	0
C[C@@H]1CCN(C(=O)CC#N)C[C@@H]1N(C)c1ncnc2[nH]ccc12	0
Cc1ccc2c(-c3ccncc3)c(-c3ccc(F)cc3)nn2c1.Cl	0
Cl.Cl.Nc1nc(-c2ccc3c(N)n[nH]c3c2)cc(N2CCCC(NC(=O)c3ccccc3)C2)n1 (stereo not drawn)	0
Cc1occc1-c1nc(N)c(OC[C@@H](N)Cc2c[nH]c3ccccc23)cc1-c1cc2c(C)n[nH]c2cn1	0
C=CC(=O)Nc1cc2c(Nc3ccc(F)c(Cl)c3)ncnc2cc1OCCCN1CCOCC1	19
O=C(NCCNc1ccnc(NCc2ccc(F)cc2)n1)c1cc2ccccc2s1	0
CC(C)Nc1cc(-c2ccc3c(N)n[nH]c3c2)nc(N)n1	0
CCN(CC)CCOc1ccc(Nc2ncc3cc(-c4c(Cl)cccc4Cl)c(=O)n(C)c3n2)cc1	29
NC(=O)c1cc(-c2ccccc2)cc2c(C3CCNCC3)c[nH]c12	0

====

Each item that follows carries a reported %Inh.
Tested on: CAMK1B
Applied conditions: concentration: 1 μM,replicates: in singlicate; n = 1
Readout name: %Inh (%)

CNC(=O)c1ccccc1Sc1ccc2c(/C=C/c3ccccn3)n[nH]c2c1 37
CCn1c(-c2nonc2N)nc2c(C#CC(C)(C)O)nc(OCCN)cc21.Cl.Cl 29
CCN(CC)CCCCNc1ncc2cc(-c3c(Cl)cccc3Cl)c(NC(=O)NC(C)(C)C)nc2n1 7
CC(C)Nc1cc(-c2ccc3c(N)n[nH]c3c2)nc(N)n1 26
CN(C)CCOc1ccc(-c2cc(-c3c[nH]nc3-c3ccccn3)ccn2)cc1 0
C=CC(=O)Nc1cc2c(Nc3ccc(F)c(Cl)c3)ncnc2cc1OCCCN1CCOCC1 61
COc1ccc(C[C@@H](CN)NC(=O)c2cc(Br)c(-c3ccnc4[nH]ccc34)s2)cc1.Cl.Cl 48
NC(=O)c1cc(-c2ccccc2)cc2c(C3CCNCC3)c[nH]c12 87
Cc1ccc2c(-c3ccncc3)c(-c3ccc(F)cc3)nn2c1.Cl 0

====

System: CDK11
Construct: gene CDK19
Applied conditions: concentration: 1 μM,replicates: in singlicate; n = 1
Listing of entries alongside the reported %Inh.

Compound	System name	%Inh (%)
Cc1n[nH]c2ccc(-c3cc(OC[C@@H](N)Cc4ccccc4)cnc3-c3ccoc3)cc12.O=C(O)C(F)(F)F.O=C(O)C(F)(F)F [GSK507358]	CDK11	6
Cc1cc2cn[nH]c2cc1-c1cccc2c(N)c(C(N)=O)nnc12	CDK11	1
CCn1c(-c2nonc2N)nc2c(C#CC(C)(C)O)nc(OCCN)cc21.Cl.Cl [GSK902056]	CDK11	1
Cl.Oc1cc(-c2nc(-c3ccccc3)[nH]c2-c2ccncc2)ccc1Cl [SB-386023]	CDK11	5
C[C@@H]1CCN(C(=O)CC#N)C[C@@H]1N(C)c1ncnc2[nH]ccc12	CDK11	18
C=CC(=O)Nc1cc2c(Nc3ccc(F)c(Cl)c3)ncnc2cc1OCCCN1CCOCC1 [GW781483]	CDK11	15
CC(C)Nc1cc(-c2ccc3c(N)n[nH]c3c2)nc(N)n1 [GSK2221681]	CDK11	0
Cc1occc1-c1nc(N)c(OC[C@@H](N)Cc2c[nH]c3ccccc23)cc1-c1cc2c(C)n[nH]c2cn1 [GSK1660450]	CDK11	0
CCN(CC)CCCCNc1ncc2cc(-c3c(Cl)cccc3Cl)c(NC(=O)NC(C)(C)C)nc2n1	CDK11	14
Nc1nc(Nc2ccccc2)cc(-c2ccc3c(N)n[nH]c3c2)n1 [GSK2225749]	CDK11	0
C[C@@H](Oc1cc(-c2cnn(C3CCNCC3)c2)cnc1N)c1c(Cl)ccc(F)c1Cl	CDK11	29
Cl.Cl.NC[C@H](Cc1ccc(C(F)(F)F)cc1)NC(=O)c1cc(Br)c(-c2ccnc3[nH]ccc23)s1 [GSK1487252]	CDK11	14
Cl.Cl.NC[C@H](CC1CCCCC1)NC(=O)c1cc(Br)c(-c2ccnc3[nH]ccc23)s1 [GSK1581427]	CDK11	12
COc1ccc(C[C@@H](CN)NC(=O)c2cc(Br)c(-c3ccnc4[nH]ccc34)s2)cc1.Cl.Cl [GSK1389063]	CDK11	39
CN(C)CCOc1ccc(-c2cc(-c3c[nH]nc3-c3ccccn3)ccn2)cc1 [GW835314]	CDK11	13
C[C@H]1Oc2cc(cnc2N)-c2c(nn(C)c2C#N)CN(C)C(=O)c2ccc(F)cc21	CDK11	12
Cc1cc(C(=O)Nc2ccc(Oc3ccc4nc(NC(=O)C5CC5)cn4n3)cc2)nn1-c1ccccc1	CDK11	3
NC(=O)c1cc(-c2ccccc2)cc2c(C3CCNCC3)c[nH]c12 [GSK301362]	CDK11	6
O=C(NCCNc1ccnc(NCc2ccc(F)cc2)n1)c1cc2ccccc2s1 [GSK1379944]	CDK11	0

====

System: ABL1-nonphosphorylated
Applied conditions: concentration: 1 μM,replicates: in singlicate; n = 1

Compound	System name	%Inh (%)
CC(C)Nc1cc(-c2ccc3c(N)n[nH]c3c2)nc(N)n1	ABL1-nonphosphorylated	0
CCn1c(-c2nonc2N)nc2c(C#CC(C)(C)O)nc(OCCN)cc21.Cl.Cl	ABL1-nonphosphorylated	0
NC(=O)c1cc(-c2ccccc2)cc2c(C3CCNCC3)c[nH]c12	ABL1-nonphosphorylated	2
Cl.Cl.NC[C@H](Cc1ccc(C(F)(F)F)cc1)NC(=O)c1cc(Br)c(-c2ccnc3[nH]ccc23)s1	ABL1-nonphosphorylated	0
CN(C)CC(O)COc1ccc(Nc2nccc(-c3cnn4nc(N5CCOCC5)ccc34)n2)cc1 (centres unmarked)	ABL1-nonphosphorylated	48
C[C@@H]1CCN(C(=O)CC#N)C[C@@H]1N(C)c1ncnc2[nH]ccc12	ABL1-nonphosphorylated	4
Cl.Oc1cc(-c2nc(-c3ccccc3)[nH]c2-c2ccncc2)ccc1Cl	ABL1-nonphosphorylated	56
CN(C)CCOc1ccc(-c2cc(-c3c[nH]nc3-c3ccccn3)ccn2)cc1	ABL1-nonphosphorylated	91.5
C[C@H]1Oc2cc(cnc2N)-c2c(nn(C)c2C#N)CN(C)C(=O)c2ccc(F)cc21	ABL1-nonphosphorylated	56
Nc1nc(Nc2ccccc2)cc(-c2ccc3c(N)n[nH]c3c2)n1	ABL1-nonphosphorylated	58
Cl.Cl.Nc1nc(-c2ccc3c(N)n[nH]c3c2)cc(N2CCCC(NC(=O)c3ccccc3)C2)n1 (centres unmarked)	ABL1-nonphosphorylated	0
CCN(CC)CCCCNc1ncc2cc(-c3c(Cl)cccc3Cl)c(NC(=O)NC(C)(C)C)nc2n1	ABL1-nonphosphorylated	100
O=C(NCCCN1CCOC1=O)c1cnc(NCc2cc(Cl)ccc2Cl)nc1NC1CCCC1	ABL1-nonphosphorylated	73
Cc1cc2cn[nH]c2cc1-c1cccc2c(N)c(C(N)=O)nnc12	ABL1-nonphosphorylated	64
